From: patent US20250084096A1

Recorded Dmax values for a group of molecules are listed next.
# TARGET OR TEST SYSTEM: UniProtKB O60885
# TEST: BRD4 degradation assay in EoL-1 cells
# Assay type: cell-based
# COND: EOL1, 4 hours, complete loss = −100%, read-out: Sinf (maximum degradation, percent change in protein level)

MOLECULE	TARGET OR TEST SYSTEM	Dmax
Cc1sc2c(c1C)C(c1ccc(/C=C/CN)cc1)=N[C@@H](CC(=O)OC(C)(C)C)c1nnc(C)n1-2 [Compound 6a]	UniProtKB O60885	-77.9%
Cc1sc2c(c1C)C(c1ccc(C#CCN)cc1)=N[C@H](CC(=O)OC(C)(C)C)c1nnc(C)n1-2 [Compound 1b]	UniProtKB O60885	-87%
Cc1sc2c(c1C)C(c1ccc(C#CCNO)cc1)=N[C@@H](CC(=O)OC(C)(C)C)c1nnc(C)n1-2 [Compound 8a]	UniProtKB O60885	-92.2%
Cc1sc2c(c1C)C(c1ccc(C#CCN)cc1)=N[C@@H](CC(=O)OC(C)(C)C)c1nnc(C)n1-2 [Compound 1a]	UniProtKB O60885	-83.8%

###

# TARGET OR TEST SYSTEM: BRD4_BD1 bromodomain (Homo sapiens (Human), UniProt O60885)
# TEST: BRD4 BD1 biochemical binding assay (TR-FRET)
# COND: displacement of biotinylated ligand Compound C
pIC50: −log10 of the molar value.
Recorded pIC50 values for a group of compounds are listed next.

COMPOUND	pIC50
CC#Cc1ccc(C2=N[C@@H](CC(=O)OC(C)(C)C)c3nnc(C)n3-c3sc(C)c(C)c32)cc1 [Compound 14a]	7.73
CNCC#Cc1ccc(C2=N[C@@H](CC(=O)OC(C)(C)C)c3nnc(C)n3-c3sc(C)c(C)c32)cc1 [Compound 2a]	7.84
CC(=O)NCC#Cc1ccc(C2=N[C@@H](CC(=O)OC(C)(C)C)c3nnc(C)n3-c3sc(C)c(C)c32)cc1 [Compound 10a]	8.18
Cc1sc2c(c1C)C(c1ccc(C#CC(C)N)cc1)=N[C@@H](CC(=O)OC(C)(C)C)c1nnc(C)n1-2 (stereo partly shown) [Compound 11a]	7.85

###

# TARGET OR TEST SYSTEM: BRD4_BD2 bromodomain (Homo sapiens (Human), UniProt O60885)
# TEST: BRD4 BD2 biochemical binding assay (TR-FRET)
# COND: displacement of biotinylated ligand Compound C
pIC50: −log10 of the molar value.
Recorded pIC50 values for a group of molecules are listed next.

MOLECULE	TARGET OR TEST SYSTEM	pIC50
Cc1sc2c(c1C)C(c1ccc(C#CCN)cc1)=N[C@H](CC(=O)OC(C)(C)C)c1nnc(C)n1-2	BRD4_BD2 bromodomain (Homo sapiens (Human), UniProt O60885)	6.57
Cc1sc2c(c1C)C(c1ccc(C#CC(C)N)cc1)=N[C@@H](CC(=O)OC(C)(C)C)c1nnc(C)n1-2 (stereo partly shown) [Compound 11a]	BRD4_BD2 bromodomain (Homo sapiens (Human), UniProt O60885)	7.97
CCC#Cc1ccc(C2=N[C@@H](CC(=O)OC(C)(C)C)c3nnc(C)n3-c3sc(C)c(C)c32)cc1 [Compound 13a]	BRD4_BD2 bromodomain (Homo sapiens (Human), UniProt O60885)	7.54
Cc1sc2c(c1C)C(c1ccc(C#CCN)cc1)=N[C@@H](CC(=O)OC(C)(C)C)c1nnc(C)n1-2	BRD4_BD2 bromodomain (Homo sapiens (Human), UniProt O60885)	7.91
